Molecular target: hCA II (Homo sapiens, UniProt P00918)
Construct: made in house; host or cells: Escherichia coli BL21 (DE3)
Test: CA esterase activity assay, isozyme hCA II
Format: biochemical
Conditions: Table 3; human (cloned) isozymes, esterase assay method; read-out: KI hCA II
measurement type: Ki (nM)

molecule | units text | Ki
Cc1cc(-c2ccccc2)cc(-c2ccccc2)[n+]1-c1ccc(S(=O)(=O)Nc2nnc(S(N)(=O)=O)s2)cc1 [Compound 80] | nM | 1.21
Cc1c(-c2ccccc2)cc(C)[n+](-c2ccc(S(=O)(=O)Nc3nnc(S(N)(=O)=O)s3)cc2)c1C [Compound 90] | nM | 1.24
CCc1cc(-c2ccccc2)cc(-c2ccccc2)[n+]1-c1ccc(S(=O)(=O)Nc2nnc(S(N)(=O)=O)s2)cc1 [Compound 81] | nM | 1.14
CCCCc1cc(-c2ccccc2)cc(-c2ccccc2)[n+]1-c1ccc(S(=O)(=O)Nc2nnc(S(N)(=O)=O)s2)cc1 [Compound 84] | nM | 4.95

(a) Cc1cc(C)[n+](-c2ccc(S(=O)(=O)Nc3nnc(S(N)(=O)=O)s3)cc2)c(C)c1 [Compound 71]
(b) NS(=O)(=O)c1nnc(NS(=O)(=O)c2ccc(-[n+]3c(-c4ccccc4)cc(-c4ccccc4)cc3-c3ccccc3)cc2)s1 [Compound 87]
Could you check which of a and b has a smaller value for Ki? I would appreciate it if you answered with the label of your choice.
a
(a: 0.26 nM, b: 5.96 nM)

###

Molecular target: hCA I (Homo sapiens)
Construct: made in house; host or cells: Escherichia coli BL21 (DE3)
Sequence (P00915 whole entry): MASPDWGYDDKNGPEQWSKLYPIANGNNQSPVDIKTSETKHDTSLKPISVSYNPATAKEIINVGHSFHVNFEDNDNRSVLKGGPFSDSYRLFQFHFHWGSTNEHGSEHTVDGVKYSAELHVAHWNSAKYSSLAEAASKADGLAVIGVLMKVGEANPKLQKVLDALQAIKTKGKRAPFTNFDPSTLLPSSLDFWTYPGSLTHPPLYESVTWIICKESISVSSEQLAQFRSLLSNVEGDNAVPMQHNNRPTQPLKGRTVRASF
Assay: CA esterase activity assay, isozyme hCA I
Format: biochemical
Settings: Table 2; human (cloned) isozymes; read-out: KI hCA I
pKi: −log10 of the molar value.
measurement type: pKi

// below: answered compounds
compound | pKi
Cc1cc(C)[n+](CCc2ccc(S(N)(=O)=O)cc2)c(C(C)C)c1 [Compound 56] | 5.70
CCCc1cc(-c2ccccc2)cc(-c2ccccc2)[n+]1-c1ccc(S(N)(=O)=O)cc1 [Compound 34] | 3.85
CCCc1cc(-c2ccccc2)cc(CCC)[n+]1-c1ccc(S(N)(=O)=O)cc1 [Compound 30] | 5.00
NS(=O)(=O)c1ccc(C[n+]2c(-c3ccccc3)cccc2-c2ccccc2)cc1 [Compound 53] | 3.55
CCc1cc(-c2ccccc2)cc(-c2ccccc2)[n+]1Cc1ccc(S(N)(=O)=O)cc1.[O-][Cl+3]([O-])([O-])[O-] [Compound 47] | 4.38

(I) Cc1cc(C)[n+](Cc2ccc(S(N)(=O)=O)cc2)c(C(C)C)c1 [Compound 40]
(II) CCCc1cc(-c2ccccc2)cc(-c2ccccc2)[n+]1Cc1ccc(S(N)(=O)=O)cc1 [Compound 48]
(III) Cc1cc(-c2ccccc2)cc(-c2ccccc2)[n+]1CCc1ccc(S(N)(=O)=O)cc1 [Compound 62]
(IV) Cc1cc(-c2ccccc2)cc(-c2ccccc2)[n+]1Cc1ccc(S(N)(=O)=O)cc1 [Compound 46]
List items by pKi in falling order. // format: requested-order list of labels
I, III, IV, II
(I: 5.22, III: 4.74, IV: 4.49, II: 3.89)

###

Molecular target: hCA IX (Homo sapiens, UniProt Q16790)
Test: CA CO2 hydrase activity assay, tumor-associated isozyme hCA IX
Conditions: read-out: KI hCA IX; Table 3; catalytic domain of the human, cloned isozyme, CO2 hydrase assay method
pKi: −log10 of the molar value.
measurement type: pKi

// below: answered molecules
compound | recorded result
CC(C)(C)c1cc(-c2ccccc2)cc(-c2ccccc2)[n+]1-c1ccc(S(=O)(=O)Nc2nnc(S(N)(=O)=O)s2)cc1 | 7.37
Cc1cc(-c2ccccc2)cc(C)[n+]1-c1ccc(S(=O)(=O)Nc2nnc(S(N)(=O)=O)s2)cc1 | 8.22

(1) CCCc1cc(-c2ccccc2)cc(CCC)[n+]1-c1ccc(S(=O)(=O)Nc2nnc(S(N)(=O)=O)s2)cc1
(2) CCc1cc(-c2ccccc2)cc(CC)[n+]1-c1ccc(S(=O)(=O)Nc2nnc(S(N)(=O)=O)s2)cc1
When their pKi values are compared, which is larger, 1 or 2 ? I would appreciate it if you answered with the label of your choice.
2
